Source of measurements: patent US20230357323A1

# target: T1, human IL-23R (hIL-23R), custom construct with C-terminal avi and his tags, biotinylated (human, UniProt Q5VWK5 24-355, limits assumed, enzymatically biotinylated via the avi-tag)
# T1 construct: immobilized on streptavidin tips in BLI, labeled target in FACS; also called human IL-23 receptor
# T1 sequence (looked up): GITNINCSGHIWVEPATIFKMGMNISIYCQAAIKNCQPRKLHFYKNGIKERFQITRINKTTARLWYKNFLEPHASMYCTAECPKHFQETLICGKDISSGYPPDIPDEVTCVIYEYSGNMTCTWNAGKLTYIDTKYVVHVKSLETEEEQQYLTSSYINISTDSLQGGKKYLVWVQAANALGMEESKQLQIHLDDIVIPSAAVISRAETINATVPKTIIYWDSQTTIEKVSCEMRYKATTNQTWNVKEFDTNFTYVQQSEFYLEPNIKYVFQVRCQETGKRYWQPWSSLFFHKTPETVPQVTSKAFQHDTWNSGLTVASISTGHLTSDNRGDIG
# protocol_details: BLI titration, biotinylated hIL-23R on streptavidin tips

>  <binder>
23R_B (designed binder, purified from E. coli for BLI) NLWQIFYQLSTILKRTGDPTAKKLLKALAEALKKGDEKALKELAKKATKYIRSHHHHHH

>  <Kd, nM>
70

$$$$
>  <binder>
23R_A (designed binder, purified from E. coli for BLI) MESEKYLRELVKKYYEGKLSVQEAVEEVRKYARKKGLEAWMLTWMFMELVKRYIHHHHHH

>  <Kd, nM>
26

$$$$
